# credit: the supplement of paper PMC10567573

B1: WDFY1 (parent)
chain: LLIPKEDGVITASEDRTIRVWLKR

Variants of: B1
test-protocol: protein stability index of a GFP-peptide fusion (GPS, HEK-293T) (PSI 1-6); higher = more stable;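 further: lentivirally expressed fusions sorted by FACS into six bins by GFP to DsRed ratio, PSI derived from sequencing read proportions per bin multiplied by bin number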
condition-set: c terminus: a fixed tail appended
Classify by measured protein stability index: satisfied if it is equal to or exceeds 2, not satisfied if it is smaller.

Determine whether measured protein stability index meets or exceeds 2 for LLIPKEDGHITASEDRTIRVWLKR [V9H]
satisfied

Determine whether measured protein stability index meets or exceeds 2 for LIIPKEDGVITASEDRTIRVWLKR [L2I]
satisfied

Determine whether measured protein stability index meets or exceeds 2 for LLIPKEDGVITCSEDRTIRVWLKR [A12C]
not satisfied

Determine whether measured protein stability index meets or exceeds 2 for LLIPKFDGVITASEDRTIRVWLKR [E6F]
satisfied

Determine whether measured protein stability index meets or exceeds 2 for LLIPKEDGVITASEDRCIRVWLKR [T17C]
satisfied

Determine whether measured protein stability index meets or exceeds 2 for LLIPKEDGVINASEDRTIRVWLKR [T11N]
not satisfied

Determine whether measured protein stability index meets or exceeds 2 for LLIPKEDGVITASEDRTIRVWYKR [L22Y]
satisfied

Determine whether measured protein stability index meets or exceeds 2 for LLIPKEDGVITASEDRTIRVWLIR [K23I]
satisfied

Determine whether measured protein stability index meets or exceeds 2 for QLIPKEDGVITASEDRTIRVWLKR [L1Q]
satisfied

Determine whether measured protein stability index meets or exceeds 2 for LLIPKEDGVITASTDRTIRVWLKR [E14T]
not satisfied

Determine whether measured protein stability index meets or exceeds 2 for LLIPKEDGVITASEDRTVRVWLKR [I18V]
satisfied

Determine whether measured protein stability index meets or exceeds 2 for LLIPNEDGVITASEDRTIRVWLKR [K5N]
satisfied

Determine whether measured protein stability index meets or exceeds 2 for LLIPKEDGVITASEERTIRVWLKR [D15E]
not satisfied

Determine whether measured protein stability index meets or exceeds 2 for LLIPKEDGVITACEDRTIRVWLKR [S13C]
not satisfied

Determine whether measured protein stability index meets or exceeds 2 for LLIPKEDGVITASEDQTIRVWLKR [R16Q]
satisfied

Determine whether measured protein stability index meets or exceeds 2 for LLIPKEDGVITASYDRTIRVWLKR [E14Y]
not satisfied

Determine whether measured protein stability index meets or exceeds 2 for LLIPKGDGVITASEDRTIRVWLKR [E6G]
satisfied

Determine whether measured protein stability index meets or exceeds 2 for LLIPKEDGYITASEDRTIRVWLKR [V9Y]
not satisfied

Determine whether measured protein stability index meets or exceeds 2 for LLIPKEDGVITASEDRTSRVWLKR [I18S]
satisfied

Determine whether measured protein stability index meets or exceeds 2 for LLIPKEDGMITASEDRTIRVWLKR [V9M]
satisfied

Determine whether measured protein stability index meets or exceeds 2 for LLIPKEDGVITASWDRTIRVWLKR [E14W]
not satisfied

Determine whether measured protein stability index meets or exceeds 2 for LLIPKEDGVITASEDRTITVWLKR [R19T]
not satisfied

Determine whether measured protein stability index meets or exceeds 2 for YLIPKEDGVITASEDRTIRVWLKR [L1Y]
satisfied

Determine whether measured protein stability index meets or exceeds 2 for LLIPKEDHVITASEDRTIRVWLKR [G8H]
not satisfied

Determine whether measured protein stability index meets or exceeds 2 for LLIPKEDGVITASEDRTIRSWLKR [V20S]
satisfied

Determine whether measured protein stability index meets or exceeds 2 for LLIPKPDGVITASEDRTIRVWLKR [E6P]
satisfied

Determine whether measured protein stability index meets or exceeds 2 for LLIPKEDGVITASEDRTIRVILKR [W21I]
satisfied

Determine whether measured protein stability index meets or exceeds 2 for LLIPKEDGVITASMDRTIRVWLKR [E14M]
satisfied

Determine whether measured protein stability index meets or exceeds 2 for LLIPKEDGVITASEDRRIRVWLKR [T17R]
satisfied

Determine whether measured protein stability index meets or exceeds 2 for LLIPKEDGVITASEDRTIRVWLCR [K23C]
satisfied

Determine whether measured protein stability index meets or exceeds 2 for LLIPKEDGVITASEDRTIRVWCKR [L22C]
satisfied

Determine whether measured protein stability index meets or exceeds 2 for LLIPKEDGVITASEDRTTRVWLKR [I18T]
satisfied

Determine whether measured protein stability index meets or exceeds 2 for LLIPKEDGVITASEDRTIRIWLKR [V20I]
satisfied

Determine whether measured protein stability index meets or exceeds 2 for LLIPKEWGVITASEDRTIRVWLKR [D7W]
not satisfied

Determine whether measured protein stability index meets or exceeds 2 for LLIPKEDGVITPSEDRTIRVWLKR [A12P]
satisfied

Determine whether measured protein stability index meets or exceeds 2 for LLIPKEDGVITASEDRTIRKWLKR [V20K]
satisfied

Determine whether measured protein stability index meets or exceeds 2 for LLAPKEDGVITASEDRTIRVWLKR [I3A]
satisfied

Determine whether measured protein stability index meets or exceeds 2 for LLIPKEDGVITASIDRTIRVWLKR [E14I]
satisfied

Determine whether measured protein stability index meets or exceeds 2 for LLIPKEDGVITASEDYTIRVWLKR [R16Y]
not satisfied

Determine whether measured protein stability index meets or exceeds 2 for LLIPKEDGVITASRDRTIRVWLKR [E14R]
satisfied

Determine whether measured protein stability index meets or exceeds 2 for LLIPKEDGVITASQDRTIRVWLKR [E14Q]
satisfied

Determine whether measured protein stability index meets or exceeds 2 for LRIPKEDGVITASEDRTIRVWLKR [L2R]
not satisfied

Determine whether measured protein stability index meets or exceeds 2 for LLIPKEDGVETASEDRTIRVWLKR [I10E]
satisfied
